# test-target: Phospho-KIT (Tyr719) (Homo sapiens, UniProt P10721, K642E)
# Construct: endogenous in cells
# Sequence (P10721 26-976 K642E): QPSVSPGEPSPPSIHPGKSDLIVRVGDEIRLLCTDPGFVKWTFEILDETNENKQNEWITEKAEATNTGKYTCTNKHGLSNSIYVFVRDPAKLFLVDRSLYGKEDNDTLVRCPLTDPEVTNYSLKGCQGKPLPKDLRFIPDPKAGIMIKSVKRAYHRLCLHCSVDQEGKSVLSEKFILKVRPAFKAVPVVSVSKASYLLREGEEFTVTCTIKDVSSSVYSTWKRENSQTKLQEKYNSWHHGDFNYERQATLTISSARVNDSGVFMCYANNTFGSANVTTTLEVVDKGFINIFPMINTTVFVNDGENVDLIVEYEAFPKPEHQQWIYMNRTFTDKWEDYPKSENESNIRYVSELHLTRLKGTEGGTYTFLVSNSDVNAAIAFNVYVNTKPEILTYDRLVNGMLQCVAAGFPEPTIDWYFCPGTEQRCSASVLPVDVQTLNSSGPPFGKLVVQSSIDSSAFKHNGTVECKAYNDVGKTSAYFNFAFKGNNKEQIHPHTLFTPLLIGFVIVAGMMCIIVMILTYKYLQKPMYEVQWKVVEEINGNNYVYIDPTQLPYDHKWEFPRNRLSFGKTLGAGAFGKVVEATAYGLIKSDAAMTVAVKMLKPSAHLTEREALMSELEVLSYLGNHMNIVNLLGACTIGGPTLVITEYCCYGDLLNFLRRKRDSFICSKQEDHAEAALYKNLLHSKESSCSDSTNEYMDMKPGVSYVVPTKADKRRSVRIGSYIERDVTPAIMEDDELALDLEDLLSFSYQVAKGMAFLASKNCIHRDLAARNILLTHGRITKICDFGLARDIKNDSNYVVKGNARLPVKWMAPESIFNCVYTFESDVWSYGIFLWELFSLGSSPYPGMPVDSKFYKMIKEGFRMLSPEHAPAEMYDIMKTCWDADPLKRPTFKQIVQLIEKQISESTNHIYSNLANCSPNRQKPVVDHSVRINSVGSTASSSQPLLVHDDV
# experimental-details: GIST882 KIT Western Blot
# conditions: GIST882 cells, 4 hours, serum-free medium; read-out: pKIT suppression by western blot analysi GIST 882
assay-endpoint: IC50

Test system Phospho-KIT (Tyr719) (Homo sapiens, UniProt P10721, K642E); read-out IC50; what value for CCn1c(=O)c(-c2cc(NC(=O)Nc3cccc(F)c3)c(F)cc2C)cc2cnc(N)cc21 [Example 58] ? 100 to 1000 nM

Test system Phospho-KIT (Tyr719) (Homo sapiens, UniProt P10721, K642E); read-out IC50; what value for CCn1c(=O)c(-c2cc(NC(=O)Nc3ccccc3)c(F)cc2Br)cc2cnc(NCCOC)cc21 [Example 51] ? 10 to 100 nM

Test system Phospho-KIT (Tyr719) (Homo sapiens, UniProt P10721, K642E); read-out IC50; what value for CCn1c(=O)c(-c2cc(NC(=O)Nc3ccccc3)c(F)cc2C)cc2cnc(NC)cc21 [Example 23] ? 10 to 100 nM

Test system Phospho-KIT (Tyr719) (Homo sapiens, UniProt P10721, K642E); read-out IC50; what value for CCn1c(=O)c(-c2cc(NC(=O)Nc3ccccc3)c(F)cc2Cl)cc2cnc(NC(=O)OC)cc21 [Example 73] ? 10 to 100 nM

Test system Phospho-KIT (Tyr719) (Homo sapiens, UniProt P10721, K642E); read-out IC50; what value for CCn1c(=O)c(-c2cc(NC(=O)Nc3cccc4ccccc34)c(F)cc2Cl)cc2cnc(NC)cc21 [Example 6] ? 10 to 100 nM

###

# test-target: c-KIT T670I kinase (Homo sapiens, UniProt P10721, T670I)
# Construct: The construct contains residues T544-V976 of cKit; GST (N); TEV cleavage site (internal)
# Sequence (P10721 544-976 T670I): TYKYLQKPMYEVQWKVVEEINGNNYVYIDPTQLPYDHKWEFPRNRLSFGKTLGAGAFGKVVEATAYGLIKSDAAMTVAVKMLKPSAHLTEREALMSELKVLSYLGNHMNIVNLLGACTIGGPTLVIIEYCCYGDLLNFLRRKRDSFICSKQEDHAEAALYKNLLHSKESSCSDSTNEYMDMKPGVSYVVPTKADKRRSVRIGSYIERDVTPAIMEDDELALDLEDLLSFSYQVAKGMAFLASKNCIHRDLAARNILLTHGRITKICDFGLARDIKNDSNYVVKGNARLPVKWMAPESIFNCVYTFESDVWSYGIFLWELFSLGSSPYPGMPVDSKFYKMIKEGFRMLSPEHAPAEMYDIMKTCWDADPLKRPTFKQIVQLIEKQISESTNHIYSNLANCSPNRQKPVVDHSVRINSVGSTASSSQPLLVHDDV
# experimental-details: c-KIT T670I kinase assay
# conditions: enzymatic assay
# Description: In this assay, the oxidation of NADH (measured by decrease in absorbance at 340 nm) was continuously monitored spectrophotometrically. […] The inhibition reaction was started by mixing serial diluted test compound with the above reaction mixture. The absorption at 340 nm was monitored continuously for 5 hours at 30 °C on Synergy 2 plate reader (BioTech). […] The protein construct was prepared by deCODE Biostructures using procedures known in the art. […]
pIC50: −log10 of the molar value.
Reported pIC50 is given for each of the following molecules.

- line-notation: "CCn1c(=O)c(-c2cc(NC(=O)Nc3ccc(F)cc3)c(F)cc2Cl)cc2cnc(NCCOC)cc21"
  test-target: "c-KIT T670I kinase (Homo sapiens, UniProt P10721, T670I)"
  pIC50: "7.00 to 8.00"

Now consider a different molecule.
Entry CCn1c(=O)c(-c2cc(NC(=O)Nc3cc(F)cc(F)c3)c(F)cc2Cl)cc2cnc(NC(C)=O)cc21 has what pIC50? > 8.00

###

# test-target: c-KIT D816V kinase (Homo sapiens, UniProt P10721, D816V)
# Construct: residues T544-V976 with N-terminal GST fusion
# Sequence (P10721 544-976 D816V): as the sequence (P10721 544-976 T670I) above, with I127T, D273V counted along it
# experimental-details: c-KIT D816V kinase Assay
# conditions: enzymatic assay, ATP 200 uM
pIC50: −log10 of the molar value.
Reported pIC50 is given for each of the following compounds.

Before answering, review these 8 worked examples.
- line-notation: "CCn1c(=O)c(-c2cc(NC(=O)Nc3ccccc3)c(F)cc2Cl)cc2cnc(NC(=O)N3CC[C@@H](N(C)C)C3)cc21"
  pIC50: "7.00 to 8.00"
- line-notation: "CCn1c(=O)c(-c2cc(NC(=O)Nc3ccccc3)c(F)cc2Cl)cc2cnc(NCCN(C)C)cc21"
  pIC50: "6.00 to 7.00"
- line-notation: "CCn1c(=O)c(-c2cc(NC(=O)Nc3ccccc3)c(F)cc2C)cc2cnc(NCCOC)cc21"
  pIC50: "7.00 to 8.00"
- line-notation: "CCn1c(=O)c(-c2cc(NC(=O)Nc3cc(F)cc(Cl)c3)c(F)cc2C)cc2cnc(NC)cc21"
  pIC50: "6.00 to 7.00"
- line-notation: "CCn1c(=O)c(-c2cc(NC(=O)Nc3csc4ccccc34)c(F)cc2F)cc2cnc(NC)cc21"
  pIC50: "> 8.00"
- line-notation: "CCn1c(=O)c(-c2cc(NC(=O)Nc3cccc(F)c3)c(F)cc2C)cc2cnc(NC(C)=O)cc21"
  pIC50: "7.00 to 8.00"
- line-notation: "CCn1c(=O)c(-c2cc(NC(=O)Nc3cccc(F)c3)c(F)cc2Cl)cc2cnc(NC)cc21"
  pIC50: "> 8.00"
- line-notation: "CCn1c(=O)c(-c2cc(NC(=O)Nc3ccccc3)c(F)cc2Cl)cc2cnc(NC)cc21"
  pIC50: "7.00 to 8.00"

Test system c-KIT D816V kinase (Homo sapiens, UniProt P10721, D816V); read-out pIC50; what value for CCn1c(=O)c(-c2cc(NC(=O)Nc3cc(F)cc(F)c3)c(F)cc2C)cc2cnc(NC(=O)N(C)C)cc21 ? 7.00 to 8.00

Test system c-KIT D816V kinase (Homo sapiens, UniProt P10721, D816V); read-out pIC50; what value for CCn1c(=O)c(-c2cc(NC(=O)Nc3cc(F)cc(Cl)c3)c(F)cc2Cl)cc2cnc(NC)cc21 ? 6.00 to 7.00
